From: PubChem BioAssay

System: Neuregulin-1 EGF-like domain
Test: small molecules binding NRG1 EGF domain – biochemical, small-molecule microarray, 635 nm fluorescence, primary screen (AID 1081);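 further: binding of the protein to compounds printed on small-molecule microarray slides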
Details: higher = more signal
property_name: composite z-score
Reply: number alone, nothing else.

Use these answered entries as a reference point.
COc1cc2c(cc1O)C(c1cccs1)N(Cc1cc3c(cc1Br)OCO3)CC2 (stereo not drawn) ... 1.45
C=CC[C@H](OC(=O)Nc1ccc(SC)cc1)c1ccc(O)c2ccccc12 ... 1.33
C=C[C@H](C)[C@H](OC(=O)Nc1ccc(SC)cc1)c1ccc(OCCO)cc1 ... 1.15
COc1ccc(C#Cc2ccc3c(c2)[C@]2(C(=O)N3)[C@H](c3ccc(O)cc3)N3[C@H](c4ccccc4)[C@H](c4ccccc4)OC(=O)[C@H]3[C@@H]2C(=O)Nc2nc3ccccc3s2)cc1 ... 1.36
CC(C)[Si](C#CCCCC#N)(O[C@H](c1ccccc1)c1cn(Cc2ccccc2)nn1)C(C)C ... 1.13

stdin: Please indicate composite z-score recorded for [N-]=[N+]=NCc1ccccc1C[C@@]1(C(N)=O)N=C(c2ccc(OCCCO)cc2)O[C@@H]1c1ccccc1
stdout: 1.16

stdin: Specify reported composite z-score for the compound shown: C=CCC(OC(C)=O)[C@@H]1[C@@H](N(Cc2ccc(-c3cccc(C(F)(F)F)c3)o2)C(=O)c2ccc(-c3ccccc3)cc2)c2cc(OCCCO)ccc2N1C(=O)Cc1ccc2ccccc2c1 (stereo partly drawn)
stdout: -0.0291

stdin: Look up and report measured composite z-score for this entry: CCCNC(=O)[C@@]1(C)c2ccccc2C(=O)N(c2ccc(C)cn2)[C@H]1c1ccc(CO)cc1
stdout: 0.781

stdin: Look up and report measured composite z-score for this entry: CCCC1(C(=O)OC)C=C2C(=C(C)C(=O)C2C)CN1 (stereo not drawn)
stdout: 0.188

stdin: Give the measured composite z-score for NC(=O)[C@H]1[C@@H]2C(=O)O[C@@H](c3ccccc3)[C@@H](c3ccccc3)N2[C@@H](c2ccc(OCCO)cc2)[C@]12C(=O)Nc1ccc(C#CCCO)cc12
stdout: 1.02

stdin: Write down composite z-score measured for item CC1CC/C=C\[C@H]2OC34C=CCN(C(C)(C)C)C(=O)[C@H]3N(CCCCCO)C(=O)[C@@H]4C2C(=O)O1 (stereo partly drawn)
stdout: 0.479

stdin: Specify composite z-score for COc1cc2c(cc1O)C(C1CC1)N(Cc1cccc(OC(F)(F)F)c1)CC2 (stereo not drawn) and stop.
stdout: 0.857

stdin: Please look at this compound and report its composite z-score: CCCCNC(=O)c1ccc(C#CC(C)(C)C)c(OC(C)=O)c1
stdout: 0.865
